Biological target: Tyrosine-protein phosphatase non-receptor type 22 (Homo sapiens) (UniProt Q9Y2R2)
Sequence (Q9Y2R2 whole entry, looked up): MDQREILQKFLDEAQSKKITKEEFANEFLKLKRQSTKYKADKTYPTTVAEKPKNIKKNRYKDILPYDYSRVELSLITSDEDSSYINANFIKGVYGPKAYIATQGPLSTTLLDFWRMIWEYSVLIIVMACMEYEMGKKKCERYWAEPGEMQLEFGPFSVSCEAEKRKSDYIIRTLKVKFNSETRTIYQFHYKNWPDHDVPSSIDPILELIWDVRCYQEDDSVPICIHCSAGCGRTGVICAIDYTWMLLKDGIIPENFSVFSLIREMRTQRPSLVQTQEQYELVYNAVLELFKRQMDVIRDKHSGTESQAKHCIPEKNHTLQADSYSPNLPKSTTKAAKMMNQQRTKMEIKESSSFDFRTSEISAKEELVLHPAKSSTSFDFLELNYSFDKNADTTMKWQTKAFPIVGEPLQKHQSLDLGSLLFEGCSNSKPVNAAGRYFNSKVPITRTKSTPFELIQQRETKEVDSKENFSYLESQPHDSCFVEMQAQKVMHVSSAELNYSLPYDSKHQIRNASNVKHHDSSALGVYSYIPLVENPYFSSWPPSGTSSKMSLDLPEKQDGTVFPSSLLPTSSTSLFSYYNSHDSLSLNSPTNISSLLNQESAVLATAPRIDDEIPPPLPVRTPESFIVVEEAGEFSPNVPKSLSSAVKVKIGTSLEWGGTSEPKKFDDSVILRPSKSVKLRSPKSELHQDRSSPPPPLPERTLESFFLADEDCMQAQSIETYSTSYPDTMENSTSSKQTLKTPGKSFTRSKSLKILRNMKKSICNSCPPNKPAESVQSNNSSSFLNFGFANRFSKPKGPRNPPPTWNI
Assay: PTPN22 lymphoid phosphatase activity blockers – biochemical, fluorescence intensity, uHTS (AID 1779);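 further: plate controls were vehicle with enzyme for no effect and no enzyme for full effect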
Conditions: recombinant LYP phosphatase, at 11.5 µM
About 160 (0.055%) of roughly 290,000 compounds were called active. No stated cut-off is given here; in the data, active means inhibition above about 50%; inactive means the rest. The sample holds actives, similar compounds and a random draw of the others, so the mix is not that of the screen.
Classes used: active, inactive

{"columns": ["molecule_smiles", "assayed_system", "classification"],
 "data": [
  ["Cc1ccc(CNS(=O)(=O)c2ccc(C(C)(C)C)cc2)n1C", "Tyrosine-protein phosphatase non-receptor type 22 (Homo sapiens) (UniProt Q9Y2R2)", "inactive"],
  ["c1cc(-n2nnc3cnccc32)ccn1", "Tyrosine-protein phosphatase non-receptor type 22 (Homo sapiens) (UniProt Q9Y2R2)", "inactive"],
  ["Cn1c(SCC(=O)N2CCN(c3ccccc3)CC2)nnc1-c1cc2ccccc2o1", "Tyrosine-protein phosphatase non-receptor type 22 (Homo sapiens) (UniProt Q9Y2R2)", "active"],
  ["CCOc1cc(/C=N\\NC(=O)c2ccc(NC(=O)C(C)(C)C)cc2)ccc1OC(=O)c1ccc(C)cc1", "Tyrosine-protein phosphatase non-receptor type 22 (Homo sapiens) (UniProt Q9Y2R2)", "inactive"],
  ["COc1ccc(C(=O)Nc2nc(N3C(=O)c4ccccc4C3=O)n(-c3ccccc3)n2)cc1", "Tyrosine-protein phosphatase non-receptor type 22 (Homo sapiens) (UniProt Q9Y2R2)", "inactive"],
  ["Cn1c(SCC(=O)N2CCN(c3ccccc3)CC2)nnc1-c1ccccc1", "Tyrosine-protein phosphatase non-receptor type 22 (Homo sapiens) (UniProt Q9Y2R2)", "inactive"],
  ["C#CCOc1ccc(/C=N/NC(=O)c2cccnc2)cc1OCC", "Tyrosine-protein phosphatase non-receptor type 22 (Homo sapiens) (UniProt Q9Y2R2)", "inactive"],
  ["O=C(NCc1ccc(F)cc1)c1c2c(nc3ccccc13)CCC2", "Tyrosine-protein phosphatase non-receptor type 22 (Homo sapiens) (UniProt Q9Y2R2)", "inactive"]
]}

###

Target: Tyrosine-protein phosphatase non-receptor type 22 (Homo sapiens) (UniProt Q9Y2R2)
Assay: PTPN22 lymphoid phosphatase activity blockers – biochemical, fluorescence intensity, uHTS (AID 1779);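 further: plate controls were vehicle with enzyme for no effect and no enzyme for full effect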
Settings: recombinant LYP phosphatase, at 11.5 µM, stronger effect = higher value
Among all 290,000 compounds or so, about 160 (0.055%) were called active. Many of the other results were omitted from the sample, so actives are more common in it than they were.
Listing: inhibition of selected compounds
measurement_name: inhibition (%)

{"columns": ["compound", "quantitative_result"],
 "data": [
  ["CCOC(=O)c1c(-c2ccc(C)cc2)csc1NC(=O)c1cccc(N2C(=O)CCC2=O)c1", 1],
  ["CC1(C)c2ccccc2N2CC(=O)N[C@@]21/C=C/C=C/c1ccccc1", 8.6],
  ["CCOC(=O)c1cc(-c2ccccc2)sc1NC(=S)Nc1cccc(C)n1", 5.7],
  ["Cc1ccccc1Cc1c(C)nc2ncnn2c1C", -9],
  ["COc1ccc(OC(C)C(=O)N2CCOCC2)cc1 (configuration not stated)", -9.8],
  ["CC1(C)Nc2ccccc2C(=O)N1c1ccccc1", -11.8],
  ["COc1ccc(C2CC23N=C(c2ccccc2)OC3=O)cc1 (configuration not stated)", -2.9],
  ["N#Cc1ccc(N/N=C/c2cn(-c3ccccc3)nc2-c2ccccc2)c([N+](=O)[O-])c1", -1.1],
  ["Cc1ccc([C@@H]2[C@@H]3C(=O)N(C)C(=O)[C@@H]3[C@]3(C)C(=O)N(CCO)CC(=O)N23)o1", -10.2],
  ["c1ccc2c(c1)NC1(CCCC1)n1c-2nc2ccccc21", -16.8],
  ["CCOC(=O)c1c(C)[nH]c(C)c1C(=O)CSc1nc2ccccc2n1CC", -7.1],
  ["COc1cccc(/C=N/NC(=O)c2ccc([N+](=O)[O-])cc2Cl)c1O", 9]
]}

###

Biological target: Tyrosine-protein phosphatase non-receptor type 22 (Homo sapiens) (UniProt Q9Y2R2)
Test: PTPN22 lymphoid phosphatase activity blockers – biochemical, fluorescence intensity, uHTS (AID 1779);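 further: plate controls were vehicle with enzyme for no effect and no enzyme for full effect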
Details: recombinant LYP phosphatase, at 11.5 µM, stronger effect = higher value
Screen size: about 290,000 compounds; about 160 (0.055%) were called active. The sample as a whole holds a higher share of actives than the screen did.
Quick reference: inhibition of the listed items.
measurement_name: inhibition (%)

{"columns": ["compound", "unit_abbreviation", "quantitative_result"],
 "data": [
  ["CCOC(=O)c1ccc(NC(=S)Nc2ccccc2)cc1", "%", -5.5],
  ["CCC(=O)Nc1ccc(/C(C)=N/NC(=O)c2c(-c3ccccc3Cl)noc2C)cc1", "%", -2.5],
  ["CC(=O)Nc1ccc(NC(=O)CSc2ccc(C)cc2)cc1", "%", -2.7],
  ["N#Cc1c(N2CCCC2)nc(N)c2c(N)nc(N3CCCC3)cc12", "%", 65.7],
  ["CCc1nc2cc([N+](=O)[O-])c([N+](=O)[O-])cc2[nH]1", "%", 54.4],
  ["O=C(CSc1ccc2c(c1)OCCO2)Nc1ccc(Cl)cn1", "%", -8.6],
  ["O=C(OC1CCOC1=O)c1cccc(S(=O)(=O)N2CCc3ccccc3C2)c1 (stereo unspecified)", "%", -8.2],
  ["CCc1nc2cc(Cl)c(Cl)cc2[nH]1", "%", -3],
  ["CCOC(=O)N1CCN(C(=O)C(CC)n2nc(C)c3sc4ccccc4c3c2=O)CC1 (stereo unspecified)", "%", 4.4],
  ["COc1ccc(C(C#N)(CCC#N)CCC#N)cc1OC", "%", 56.1],
  ["Cc1ccc(OCc2cc(C(=O)NC3CCOC3)no2)cc1C (stereo unspecified)", "%", -2.1],
  ["Cc1ccc(OCC(=O)N/N=C\\c2ccco2)c(C)c1", "%", 51.3],
  ["S=C(NCc1ccc(Cl)cc1Cl)NC1CCCCC1", "%", 68.1],
  ["COc1cc2c(C#N)c(N3CCCC3)nc(N)c2c(N)n1", "%", -2.4],
  ["O=C(O)CCCNc1cc(N2CCC3(CC2)OCCO3)c2noc3c2c1C(=O)c1ccccc1-3", "%", 75.6],
  ["CC(c1ccccc1)n1c(N2CCN(C)CC2)nc2c1c(=O)[nH]c(=O)n2C (stereo unspecified)", "%", -0.2]
]}

###

Molecular target: Tyrosine-protein phosphatase non-receptor type 22 (Homo sapiens)
Experiment: PTPN22 lymphoid phosphatase activity blockers – biochemical, fluorescence intensity, uHTS (AID 1779);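 further: plate controls were vehicle with enzyme for no effect and no enzyme for full effect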
Details: recombinant LYP phosphatase, at 11.5 µM
About 160 (0.055%) of roughly 290,000 compounds were called active. No stated cut-off is given here; in the data, active means inhibition above about 50%; inactive means the rest. The sample holds actives, similar compounds and a random draw of the others, so the mix is not that of the screen.
Classes used: 1 (yes) = active, 0 (no) = inactive

{"columns": ["compound", "assayed_system", "classification"],
 "data": [
  ["COc1ccccc1N1CCN(C(=O)C2CCN(C(=O)c3ccccc3Cl)CC2)CC1", "Tyrosine-protein phosphatase non-receptor type 22 (Homo sapiens)", "1 (yes)"],
  ["CCNc1nc(N)nc(-c2cc(Cl)ccc2OC)n1", "Tyrosine-protein phosphatase non-receptor type 22 (Homo sapiens)", "0 (no)"],
  ["O=C(Nc1ccccc1)C1=C[C@@H](C2CCCCC2)C[C@@H](OCCCCO)O1", "Tyrosine-protein phosphatase non-receptor type 22 (Homo sapiens)", "0 (no)"],
  ["COc1ccccc1N1CCN(C(=O)C2CCN(C(=O)c3cccc(Cl)c3)CC2)CC1", "Tyrosine-protein phosphatase non-receptor type 22 (Homo sapiens)", "0 (no)"],
  ["CC[C@H](C)[C@H](NC(N)=O)C(=O)OCC(=O)NCc1ccc(Cl)cc1", "Tyrosine-protein phosphatase non-receptor type 22 (Homo sapiens)", "0 (no)"],
  ["CC(C)CC1=NN(C(=O)c2ccco2)C(O)(C(F)(F)F)C1 (stereo not drawn)", "Tyrosine-protein phosphatase non-receptor type 22 (Homo sapiens)", "0 (no)"],
  ["CNc1nc(N)nc(-c2cc(Cl)ccc2OC)n1", "Tyrosine-protein phosphatase non-receptor type 22 (Homo sapiens)", "0 (no)"],
  ["O=C(CC1C(=O)N(Cc2ccccc2)C(=S)N1CCN1CCOCC1)Nc1ccc(F)cc1 (stereo not drawn)", "Tyrosine-protein phosphatase non-receptor type 22 (Homo sapiens)", "1 (yes)"],
  ["Cc1c(C(=O)NNC(=S)NCc2ccc(Cl)cc2)oc2ccccc12", "Tyrosine-protein phosphatase non-receptor type 22 (Homo sapiens)", "0 (no)"],
  ["COc1ccccc1N1CCN(C(=O)C2CCN(C(=O)c3ccccc3C)CC2)CC1", "Tyrosine-protein phosphatase non-receptor type 22 (Homo sapiens)", "0 (no)"],
  ["CC(=O)NCCNC(=O)CNC(=O)c1ccc(Cl)cc1", "Tyrosine-protein phosphatase non-receptor type 22 (Homo sapiens)", "0 (no)"],
  ["COc1ccc(Cl)cc1-c1nc(N)nc(NC2CCCCC2)n1", "Tyrosine-protein phosphatase non-receptor type 22 (Homo sapiens)", "1 (yes)"],
  ["CN(CC(=O)Nc1ccc(F)cc1)C(=O)CSc1nc2ncc(Cl)cc2[nH]1", "Tyrosine-protein phosphatase non-receptor type 22 (Homo sapiens)", "0 (no)"]
]}
